# targetSystem: Human LDHA (Homo sapiens (Human), UniProt P00338)
# test: human LDHA primary biochemical assay
# measurementConditions: biochemical LDHA inhibitory activity, assay of Example 1; activity level classes defined in nM
measuredParameter: IC50

Illustrative cases are given below, each with its answer.
{"compound": "NS(=O)(=O)c1ccc(Cc2c(-c3ccc(F)c(-c4ccc(Cl)c(F)c4)c3)nn(-c3nc(C(=O)O)cs3)c2CC2CC2)cc1F", "IC50": "< 100 nM"}
{"compound": "Cc1cc(-c2cccc(-c3nn(-c4nc(C(=O)O)cs4)c(CC4CC4)c3Cc3ccc(S(N)(=O)=O)c(F)c3)c2)ccc1O", "IC50": "< 100 nM"}

Moving on to the next compound.
Data request: Bench note: what IC50 did NS(=O)(=O)c1ccc(Cc2c(-c3cccc(-c4ccc(C5CC5)cc4)c3)nn(-c3nc(C(=O)O)cs3)c2CC2CC2)cc1F [Compound 222] show?
Data returned: 100 to 1000 nM
